# Tested on: SNB-75 CNS
# Protocol description: NCI-60 one-dose screen, 48 h (100 = growth as untreated, 0 = no growth, -100 = all killed)
# Details: 10 µM unless noted
This is part of a sample that, as a whole, favours compounds with a hit. Of some 83,000 tested, about 20% had one in any assay.
Readout: growth (%)
Only the number, expressed in %, is required.

INPUT: Requested read-out: growth. Entry: CC(C)(C)OC(=O)c1ccc(NCc2cc(O)ccc2O)cc1
OUTPUT: 30.5

INPUT: Requested read-out: growth. Entry: CC1=CC(=O)c2cccc(NC3=NCCO3)c21
OUTPUT: 84.6

INPUT: Requested read-out: growth. Entry: Cc1cc(O)c(C(C)C)cc1N=O
OUTPUT: 96.7

INPUT: Requested read-out: growth. Entry: O=[N+]([O-])c1ccc(N2CCN=N2)cc1
OUTPUT: 89.2

INPUT: Requested read-out: growth. Entry: CCc1ccccc1-n1[nH]c(C)c(C=N)c1=O
OUTPUT: 101

INPUT: Requested read-out: growth. Entry: CCOC(=O)c1ccc(N2C(=O)C(Cl)(c3ccccc3)C2c2ccco2)cc1 (stereo not given)
OUTPUT: 82.3

INPUT: Requested read-out: growth. Entry: CCCCCCCCCCCCCCCCC(=O)O
OUTPUT: 101

INPUT: Requested read-out: growth. Entry: C/C(CC(C)C)=N/NC(N)=S
OUTPUT: 99.3

INPUT: Requested read-out: growth. Entry: COc1cc2oc3cc(=O)cc4oc(-c5ccccc5)cc(c2c2c1CCC(c1ccccc1)O2)c43 (stereo not given)
OUTPUT: 68.2

INPUT: Requested read-out: growth. Entry: CC(C)(C)OC(=O)CC1(O)CCCCC1
OUTPUT: 90.8

INPUT: Requested read-out: growth. Entry: CCN(CC)C(CC(=O)c1ccccc1)C(=O)c1ccccc1 (stereo not given)
OUTPUT: 114

INPUT: Requested read-out: growth. Entry: Cc1ccc(NC(=S)N/C=C(\c2ccccc2)S(=O)Cc2ccccc2)c(C)c1 (stereo not given)
OUTPUT: 87.2

INPUT: Requested read-out: growth. Entry: COc1ccc(CCl)c(C)c1OC
OUTPUT: 104

INPUT: Requested read-out: growth. Entry: ON=C(C1CCCCC1)C1CCCCC1
OUTPUT: 87.3

INPUT: Requested read-out: growth. Entry: Cc1ccc([N+](=O)[O-])cc1Br
OUTPUT: 104

----------
# Tested on: HCC-2998 colon
# Protocol description: NCI-60 one-dose screen, 48 h (100 = growth as untreated, 0 = no growth, -100 = all killed)
# Details: 10 µM unless noted
About 83,000 compounds went through this panel and 20% of them were active in at least one assay; those are over-represented in the sample as a whole.
Exercise: for every item that follows, state its recorded growth.
Only the number, expressed in %, is required.

INPUT: Requested read-out: growth. Entry: c1ccc2c[n+](Cc3ccc4ccccc4n3)ccc2c1
OUTPUT: 71.7

INPUT: Requested read-out: growth. Entry: CCOC(=O)CN1CCC(C(=O)OCC)CC1
OUTPUT: 103

INPUT: Requested read-out: growth. Entry: O=C1C2=C(Nc3cc(Cl)ccc3N2)OC1c1c[nH]c2ccc(COc3ccccc3)cc12 (stereo not drawn)
OUTPUT: 83.7
